# Tested on: DMS-114
# protocol-description: NCI tumour cell line growth inhibition, 48 h
Activity calls are given as the source filed them. Rule as the data show it: active = GI50 up to about 1.1 µM and inactive = higher.
assay-endpoint: GI50

Before answering, review these 2 worked examples.
# compound, recorded-result
records = [
    ("COC(=O)CCC(NC(=S)N/N=C(\\C)c1nccs1)C(=O)OC (stereo not drawn)", "22.6 µM (inactive)"),
    ("CC1=C(C(=O)O)N2C(=O)[C@@H](NC(=O)C(c3ccc(O)cc3)N3CSC(=S)N(C(C)C)C3)C2SC1 (stereo partly drawn)", "> 100 µM (inactive)"),
]

--- query ---
input: So what does the record say about GI50 for CN(C)CC/C(=N\Nc1ccc(Cl)c(Cl)c1)c1ccccc1 ?
output: 1.83 µM (inactive)

====

# Tested on: COLO 205
# protocol-description: NCI tumour cell line growth inhibition, 48 h
Activity calls are given as the source filed them. Rule as the data show it: active = GI50 up to about 1.1 µM and inactive = higher.
Entries and their GI50

Before answering, review these 4 worked examples.
# compound, GI50
measured = [
    ("COC(=O)c1sc(=O)n(-c2ccccc2)c1SCc1ccccc1", "> 100 µM (inactive)"),
    ("O=C1Nc2ccccc2C(=O)/C1=C/NC(=S)NCCc1ccccc1", "> 100 µM (inactive)"),
    ("O=C(CCOS(=O)(=O)CF)N1CCN(C(=O)CCOS(=O)(=O)CF)CC1", "> 80.7 µM (inactive)"),
    ("CCOC(=O)c1sc2nc(SC)nc3c2c1NC(=O)CN3c1cccc(F)c1", "17.5 µM (inactive)"),
]

--- query ---
input: Report GI50 for O=C1C2C3CC(C4C5C=CC(C5)C34)C2C2C3CC(C12)C1C2C=CC(C2)C31 (stereo not given) tested on COLO 205.
output: > 100 µM (inactive)

====

# System: LOX IMVI
# protocol-description: NCI tumour cell line growth inhibition, 48 h
The source made the active and inactive calls. No stated cut-off is given here; in the data, active = GI50 up to about 1.1 µM and inactive = higher.
Assign a class; possible classes are active, inactive

Consider the worked cases shown below.
# molecule, label-value
data = [
    ("O=C1c2ccccc2-n2nnnc2C2CSCN12 (stereo unspecified)", "inactive"),
    ("CCCNC(=O)OCc1c(COC(=O)NCCC)c(-c2ccc(Cl)c(Cl)c2)n2c1CCC2", "inactive"),
    ("O=c1c2ccccc2ncn1COCc1ccccc1", "inactive"),
    ("O=c1cc(N2CCCC2)[nH]c(=O)n1-c1ccccc1", "inactive"),
    ("C#C[C@]1(O)CC[C@H]2[C@@H]3CCC4=C/C(=N/OCCN(C)C)CC[C@]4(C)[C@H]3CC[C@@]21C", "inactive"),
]

input: Assay outcome for COC(=O)c1sc(=O)n(-c2ccccc2)c1SCc1ccccc1 : what was it?
output: inactive

input: Assay outcome for CCCCCC(/C=C/c1ncccc1OCCCCCC(=O)O)=N\NC1=NCCN1 : what was it?
output: inactive

input: Assay outcome for CN(C)c1cccc(/C=C(\C#N)c2ccccc2)c1 : what was it?
output: active

input: Assay outcome for O=C1CC2(CCC(O)(c3cccc4ccccc34)C(C(=O)c3cccc4ccccc34)C2)C(=O)c2ccccc2N1 (stereo unspecified) : what was it?
output: inactive

input: Assay outcome for CC(CN1CCN(CC(C)Nc2ccnc3cc(Cl)ccc23)CC1)Nc1ccnc2cc(Cl)ccc12 (stereo unspecified) : what was it?
output: inactive

====

# Test system: HT-29
# protocol-description: NCI tumour cell line growth inhibition, 48 h
Calls of active or inactive are those of the source. Rule as the data show it: active = GI50 up to about 1.1 µM and inactive = higher.
Assign a class; possible classes are active, inactive

Consider the worked cases shown below.
# compound, label-value
measured = [
    ("N#C/C(=C\\c1cccc(O)c1)C(N)=O", "inactive"),
    ("O=S(=O)(c1ccccc1)N1CCC1c1ccccc1 (stereo not given)", "inactive"),
]

Note: attention shifts to another entry.
input: Assay outcome for O=C1C2C3CC(C4C5C=CC(C5)C34)C2C2C3CC(C12)C1C2C=CC(C2)C31 (stereo not given) : what was it?
output: inactive
